Data provenance is the MegaScale stability set (Tsuboyama et al. 2023).

B1: EHEE_rd4_0726 (parent)
chain: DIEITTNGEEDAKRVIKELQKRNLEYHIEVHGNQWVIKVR

Variants of: B1
PROTOCOL TEXT: folding stability dG (cDNA display proteolysis); higher = more stable
TEST CONDITIONS: PBS, room temperature
# cutoff 2 kcal/mol applies to folding stability dG; >= gives label 1, < gives label 0

Examples from the recorded data:
In: Check if folding stability dG >= 2 kcal/mol (inclusive). Item: E3F
Out: label 1

In: Given N33W , state whether its folding stability dG is at least 2 kcal/mol.
Out: label 0

In: Does folding stability dG meet or surpass 2 kcal/mol for D11Q ?
Out: label 1

In: Tell me whether folding stability dG is at least 2 kcal/mol here: G32R
Out: label 0

Continuing:
In: In plain terms: is recorded folding stability dG at least 2 kcal/mol for E3Y ?
Out: label 1

In: Tell me whether folding stability dG is at least 2 kcal/mol here: K21S
Out: label 1

In: # check: folding stability dG of D1S is greater than or equal to 2 kcal/mol
Out: label 1

In: I'd appreciate it if you could say whether T6D has folding stability dG at least equal to 2 kcal/mol.
Out: label 0

In: For this variant, is measured folding stability dG 2 kcal/mol or higher? L24F
Out: label 0

In: Check the entry D11V : does folding stability dG equal or exceed 2 kcal/mol?
Out: label 0

In: Quick check, folding stability dG >= 2 kcal/mol? Q34S
Out: label 1

In: Does folding stability dG meet or surpass 2 kcal/mol for V39P ?
Out: label 0

In: In plain terms: is recorded folding stability dG at least 2 kcal/mol for E3S ?
Out: label 1

In: Say whether Q34T shows folding stability dG of 2 kcal/mol or more.
Out: label 1

In: Could you tell me if the measured folding stability dG of G8V reaches 2 kcal/mol or more?
Out: label 0

In: Determine whether measured folding stability dG meets or exceeds 2 kcal/mol for E18A
Out: label 1

In: Is reported folding stability dG greater than or equal to 2 kcal/mol here: R22D
Out: label 0

In: Is folding stability dG for E25Y at or above 2 kcal/mol?
Out: label 1

In: folding stability dG >= 2 kcal/mol for T5Y ?
Out: label 1

In: Would you say V15P shows folding stability dG at minimum 2 kcal/mol?
Out: label 0

In: Does the variant V15T have recorded folding stability dG that is 2 kcal/mol or more?
Out: label 0

In: Given T5C , state whether its folding stability dG is at least 2 kcal/mol.
Out: label 1

In: Confirm if folding stability dG reported for the variant L19F is 2 kcal/mol or above.
Out: label 0

In: Record V39W ; criterion: folding stability dG no lower than 2 kcal/mol. Met?
Out: label 0

In: Check if folding stability dG >= 2 kcal/mol (inclusive). Item: V39G
Out: label 0
